Entries and their pIC50 values follow.
Target: human albumin (Homo sapiens)
Sequence (P02768 25-609): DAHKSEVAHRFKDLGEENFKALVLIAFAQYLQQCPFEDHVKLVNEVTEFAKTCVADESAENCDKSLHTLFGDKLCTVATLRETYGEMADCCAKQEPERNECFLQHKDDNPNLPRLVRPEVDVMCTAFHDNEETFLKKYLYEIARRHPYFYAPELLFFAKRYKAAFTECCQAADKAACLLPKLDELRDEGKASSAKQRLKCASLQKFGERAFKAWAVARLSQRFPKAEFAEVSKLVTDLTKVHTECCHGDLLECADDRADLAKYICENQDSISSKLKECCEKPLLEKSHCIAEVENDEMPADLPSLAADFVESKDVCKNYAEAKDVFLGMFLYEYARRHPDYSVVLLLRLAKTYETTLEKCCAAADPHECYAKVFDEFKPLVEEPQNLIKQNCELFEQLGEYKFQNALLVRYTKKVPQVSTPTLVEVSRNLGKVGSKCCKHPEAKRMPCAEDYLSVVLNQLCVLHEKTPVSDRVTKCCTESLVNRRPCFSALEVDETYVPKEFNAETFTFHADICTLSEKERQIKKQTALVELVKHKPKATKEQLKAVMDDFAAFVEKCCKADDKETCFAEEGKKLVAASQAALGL
Test: Inhibition of albumin denaturation (IAD)
Type: biochemical
Details: heated at 70 °C for 15 min, mean ± SD of triplicates, read-out: IAD IC50 ± SD
Just the number, please; pIC50 means minus log10 of the concentration in mol/L.

Solved cases below.
COc1ccc(CCNC(=O)C(C)c2ccc(-c3ccccc3)c(F)c2)cc1OC (centres unmarked)
3.76
COc1ccc(CCNC(=O)C(C)c2ccc(-c3ccccc3)c(F)c2)cc1 (centres unmarked)
3.71
CC(C(=O)NCCc1cccc(Cl)c1)c1ccc(-c2ccccc2)c(F)c1 (centres unmarked)
3.71
COc1cccc(CCNC(=O)C(C)c2ccc(-c3ccccc3)c(F)c2)c1 (centres unmarked)
3.73

Then there is this molecule:
# value lookup — system human albumin (Homo sapiens), readout pIC50, item CC(C(=O)NCCc1ccccc1)c1ccc(-c2ccccc2)c(F)c1 (centres unmarked)
3.70
